# Assayed System: T1, NPNA4 peptide, biotinylated (for BLI) (Plasmodium falciparum)
# T1 construct: source: synthetic peptide, InnoPep Inc
# T1 chain: NPNANPNANPNANPNA-{Biotin′}
# Measurement Notes: BLI
# Condition Label: both partners purified
Primed or numbered codes have the meaning given here. No end group written: not given here. Biotin′ = biotin
Measured Attribute: binding result

356 Fab (Fab, V domains shown, also called mAb 356; source: ExpiCHO cells, purified (mAb Select PrismA or Capture Select, SEC)) VH: QVQLVESGGGVVQPGRSLRLSCAASGFTFRNFGMHWVRQTPGKGLEWVAVIWHDGSNKFYADSVEGRFTISRDNSKNMIYLQMNSLRVEDTAIYYCARDSLFYDHDNSGYYGYWGQGTLVTVSS VL: QIVMTQSPATVSVSPGERATLSCRASRSVTSKLAWYQQKPGQAPRLLIYGASTRATGIPARFSGSGSGTEFTLTISSLQSEDFAVYFCQQYNNGFTFGPGTKVDFK	binds
